TGT: CDK2/Cyclin E complex (UniProt P24941 1-298; P24864 1-410)
ASSAY_OVERVIEW: cell-based or functional assay; note: test concentration or dose not given here
Square brackets hold non-standard residues; d marks the D form. Ends that are not written are not given here. Abu = CC[C@H](N)C(=O)O
Catalogue of % Inhibition, cyclin E/CDK2 kinase values
Number in %, nothing else.

# count of solved cases: 5
# BINDER, OBSERVED
records = [
    ("HSKRRLIF-NH2 [p21 (152-159) HSKRRLIF-NH2]", 80),
    ("HAKRRLFG-NH2 [P21 C-terminus (S153A) LFG HAKRRLFG-NH2]", 82),
    ("PVKRRLDL-NH2 (Derived from E2F1) [E2F1 peptide PVKRRLDL-NH2]", 74),
    ("HSKRRLDL-NH2 [P21 C-terminus-LDL hybrid HSKRRLDL-NH2]", 74),
    ("KA[Abu]RRLFG-NH2 [P21 N-terminus peptide KAURRLFG-NH2]", 86),
]

Value of measured % Inhibition, cyclin E/CDK2 kinase for the entry KAXRRLIF (U at position 3 (read as Abu); C-terminal carboxamide) [P21 N-terminus-LIF hybrid KAURRLIF-NH2] : 78

% Inhibition, cyclin E/CDK2 kinase for HSKRRLFG-NH2 [P21 C-terminius-LFG hybrid HSKRRLFG-NH2] is 82

Hello, the source for this data is patent US20040176301A1, in case you need it.
